experiment: melting temperature; fluorescence melt of hairpins on a sequencing array, two-state fit, raised by 9.35 °C to match UV melts
condition notes: sodium 0.088 M
measured attribute: Tm (°C)
Note: unit °C is implicit; provide only the numeric part.

Task: Need Tm, item GATCGTGCGAACGATC ((((((....))))))
Result: 64.1

Task: Another: GATCGATGGATCGATC ((((((....))))))
Result: 54.5

Task: Follow-up item: GACGGGGGAAACCCCGCC (.(((((....))))).)
Result: 50.5

Task: Likewise for GGGTCGGGAAACCGGTCC ((..(((....)))..)) ?
Result: 47.2

Task: Input GCCTGCGAAAGCAGCGGC ((((((....)))..)))
Result: 61.6

Task: // same read-out, input: GAGACCGCGAAAGCGCTC (((..(((....))))))
Result: 26.6

Task: Also GGTCTAACGAAAGTTACC (((..(((....)))))) ?
Result: 25.5

Task: Subsequent entry: GCTTCGCGAAAGCCAAGC ((((.((....)).))))
Result: 50.3

Task: Moving on to GCACCTGCGAAAGCATGC (((..(((....))))))
Result: 33.6

Task: Repeat for the following sequence: GACCGGACGAAAGTCGTC (((..(((....))))))
Result: 37.1

Task: Follow-up entry: GCGATCACTCGC ((((....))))
Result: 47.2

Task: And the next one, GGTAGAGGAAACCCTACC (((((.(....).))))) ?
Result: 38.2

Task: Proceed to GACTCAGGAAACTGAGCC (.(((((....))))).)
Result: 43.6

Task: Continue with GTTCACACGAAAGTGAAC (((..(((....))))))
Result: 49.2

Task: Note, next up: GAGCTGCGAAAGCATCTC (((.(((....))).)))
Result: 46.8

Task: // next record GCCTGAGGAAACCCAGGC (((((.(....).)))))
Result: 53.2

Task: Same again, this time with GTTCGGCGAAAGCCAAAC (((.(((....))).)))
Result: 46.5

Task: Field entry: GCCTCCGAAAGGAGCGGC ((((((....)))..)))
Result: 52.3

Task: What do you get for GACATTGGAAACAACGTC (((.(((....))).))) ?
Result: 34

Task: Next sequence: GATCGTGAACACGATC ((((((....))))))
Result: 63.6

Task: Could you do the same for CGGTCGGAAACGATGCCG ((((((....)))..))) , please?
Result: 38.6

Task: Another: GCGAGGCGAAAGCTTTGC ((.(.((....)).).))
Result: 51.5

Task: What about GGAAAGACGAAAGTCTCC (((..(((....)))))) ?
Result: 36.4

Task: Let us now turn to GCGAGTCGAAAGACACGC (((.(((....))).)))
Result: 66.6

Task: Now the same for GATCGAAGTCTCGATC ((((((....))))))
Result: 49.2

Task: // query: GCACCGCGAAAGCGTGGC ((..(((....)))..))
Result: 56.1

Task: Lookup GTAGTGGGAAACCACTGC (.(((((....))))).)
Result: 50.6

Task: // same read-out, input: GCGATTCGAAAGAACGC (((.(((....))))))
Result: 52.8

Task: Queued: GATCACCCGAAAGGGATC (((..(((....))))))
Result: 35.5

Task: Same again, this time with GATCATGCACATGATC ((((((....))))))
Result: 56.3

Task: What about GTCATGCGAAAGCAGGAC (((.(((....))).))) ?
Result: 67.7

Task: Another sequence to look at: GCTCAGCGAAAGCCGGGC ((.(.((....)).).))
Result: 45.4

Task: Repeat for the following sequence: GATCCTGGAAACAGGACC (.(((((....))))).)
Result: 40.1

Task: Queued: GATCGGACTTCCGATC ((((((....))))))
Result: 57.2

Task: Same question, CCCCTGAAAAGGGG (((((....))))) this time
Result: 57.2

Task: Follow-up item: GCATCCGAAAGGACTGC ((((((....))).)))
Result: 47.8

Task: Similarly, GCTATCGAAAGATTCAGC ((((((....)))..))) ?
Result: 29.6

Task: Now consider CGTGCCCGGAAACGGACG (((..(((....)))))) and answer again.
Result: 32.9

Task: Again, but for GGAGGAACGAAAGTTTCC (((..(((....))))))
Result: 30.4

Task: Would you kindly repeat that for GGCACCGGAAACGATGCC ((((.((....)).)))) ?
Result: 52.9

Task: Similarly, GGGCCACCGAAAGGTCCC (((..(((....)))))) ?
Result: 41.3

Task: Can you check GATCTGGCGCCAGATC ((((((....)))))) next?
Result: 60.5

Task: Moving on to the next sequence: GCGCTAGCGAAAGCTCGC (((..(((....))))))
Result: 45.4

Task: Would you mind doing GATCCGCTACCGGATC ((((((....)))))) as well?
Result: 56.8

Task: Further, for GATCATTGTAATGATC ((((((....)))))) ?
Result: 50.3

Task: Again, but for GCAAGAGGAAACTCTTAC (.(((((....))))).)
Result: 28

Task: Same lookup for CAATCCGAAAGGCTTG (((.((....)).))) , please.
Result: 34.7

Task: Queued: GATCCACCACTGGATC ((((((....))))))
Result: 49.4

Task: Next record, please: GTCGGCGAAAGCCCAGAC ((((((....)))..)))
Result: 42.7

Task: Follow-up entry: GAAGTCGGAAACGGTTTC (((..((....))..)))
Result: 28.4

###

experiment: melting temperature; fluorescence melt of hairpins on a sequencing array, two-state fit, raised by 9.35 °C to match UV melts
condition notes: sodium 0.088 M
measured attribute: Tm (°C)
A number alone suffices; assume °C.

Task: Please give the measured Tm for this sequence: GATATGGGAAACCATATC (((((((....)))))))
Result: 53.3

Task: What would you report for GTTGGGGGAAACTCCAGC (.(((.(....).))).) ?
Result: 35.8

Task: Continue with GCCTGACGAAAGTCTGGC (((.(((....))).)))
Result: 67.5

Task: // query: GTTGAAGGAAACTCCAAC ((((.((....)).))))
Result: 29.5

Task: What about this sequence? GACACGGGAAACCGTACC (..((((....))))..)
Result: 27.9

Task: Another sequence to look at: GAGGACGAAAGTCACCTC ((((((....)))..)))
Result: 36.2

Task: Moving on to GTCGGCGGAAACGCTGAC (((.(((....))).)))
Result: 63.1

Task: Let us now turn to GATCGGCACTCCGATC ((((((....))))))
Result: 57.1

Task: Moving on to GTTCCACGAAAGTGCAAC (((.(((....))).)))
Result: 33.5

Task: Another sequence to look at: CGGGGCCGGAAACGGCCG (((..(((....))))))
Result: 53.8

Task: How about GATCCGTCAGCGGATC ((((((....)))))) ?
Result: 57.4

Task: Try this sequence too: GTTCAAGGAAACTTGGAC ((.((((....)))).))
Result: 43.7

Task: Record: CGAACGGAAACGTCTCG ((((((....))).)))
Result: 36.8

Task: Try the sequence GATCAGTGTTCTGATC ((((((....))))))
Result: 50.2

Task: Ok, now GATGCCGAAAGGCGTATC ((((((....)))..)))
Result: 36.4

Task: Next sequence: GCAACTCCGAAAGGATGC (((..(((....))))))
Result: 38.1

Task: Would you kindly repeat that for GAAGGAGGAAACTCTTTC (((.(((....))).))) ?
Result: 31.6

Task: Proceed to GGTCTACGAAAGTAACC (((.(((....))))))
Result: 34.3

Task: What do you get for GCCATGCGAAAGCACTGC ((..(((....)))..)) ?
Result: 31.8

Task: Then this sequence: GATTCAGGAAACTGAATC (((((((....)))))))
Result: 55.7

Task: // repeat for GATCCCAGGAGGGATC ((((((....)))))) and report
Result: 59.9

Task: Also need GCCCATGGAAACGTGGGC (((((.(....).))))) , thanks.
Result: 59

Task: Another sequence: GGTGAGGGAAACCTCATC (.(((((....))))).)
Result: 48.5

Task: Also, GCGGGGCGAAAGCCGGGC ((..(((....)))..)) please.
Result: 56

Task: Do the same for GATCTACTCTTAGATC ((((((....)))))) please
Result: 41.1

Entry source: the array DNA melting data of Ke et al. (doi:10.1101/2024.01.08.574731)
